# System: recombinant human PAD2 (human, UniProt Q9Y2J8 1-665)
# Sequence (Q9Y2J8 whole entry): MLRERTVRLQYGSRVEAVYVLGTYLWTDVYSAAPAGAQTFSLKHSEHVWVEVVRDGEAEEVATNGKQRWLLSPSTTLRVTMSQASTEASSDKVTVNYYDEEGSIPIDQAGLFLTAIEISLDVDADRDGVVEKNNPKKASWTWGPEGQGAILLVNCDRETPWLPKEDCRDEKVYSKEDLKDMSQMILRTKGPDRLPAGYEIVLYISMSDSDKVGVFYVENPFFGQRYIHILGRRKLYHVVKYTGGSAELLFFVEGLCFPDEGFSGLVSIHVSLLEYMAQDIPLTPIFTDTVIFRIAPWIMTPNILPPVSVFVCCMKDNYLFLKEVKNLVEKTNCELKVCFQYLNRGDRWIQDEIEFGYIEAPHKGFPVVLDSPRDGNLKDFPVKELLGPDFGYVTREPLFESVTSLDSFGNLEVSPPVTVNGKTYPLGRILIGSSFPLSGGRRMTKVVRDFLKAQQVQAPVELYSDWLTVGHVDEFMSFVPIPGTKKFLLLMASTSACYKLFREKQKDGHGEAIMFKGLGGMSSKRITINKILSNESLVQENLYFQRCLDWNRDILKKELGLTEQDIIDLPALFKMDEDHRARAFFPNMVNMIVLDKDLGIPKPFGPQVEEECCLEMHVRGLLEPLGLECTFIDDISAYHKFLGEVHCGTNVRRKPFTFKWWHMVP
# Protocol Details: cell-based or functional assay
Square brackets hold non-standard residues; d marks the D form. Orn(fluoroacetimidoyl) = N=C(CF)NCCC[C@H](N)C(=O)O
Result Type: conversion of 0708-30 by PAD2, 10 µM inhibitor (%)
Your answer is read as %, so omit the unit and give the number.

Notebook: Ac-DSHKFD[Orn(fluoroacetimidoyl)]DFIYSD-NH2 (SMILES CC[C@H](C)[C@H](NC(=O)[C@H](Cc1ccccc1)NC(=O)[C@H](CC(=O)O)NC(=O)[C@H](CCCNC(=N)CF)NC(=O)[C@H](CC(=O)O)NC(=O)[C@H](Cc1ccccc1)NC(=O)[C@H](CCCCN)NC(=O)[C@H](Cc1c[nH]cn1)NC(=O)[C@H](CO)NC(=O)[C@H](CC(=O)O)NC(C)=O)C(=O)N[C@@H](Cc1ccc(O)cc1)C(=O)N[C@@H](CO)C(=O)N[C@@H](CC(=O)O)C(N)=O) [0741-05FA] , conversion of 0708-30 by PAD2, 10 µM inhibitor read as 54
